Value source: patent US20180185450A1

biological target: human glucagon receptor (human, UniProt P47871 26-477); experiment: cell-based or functional assay
Sequence (P47871 26-477): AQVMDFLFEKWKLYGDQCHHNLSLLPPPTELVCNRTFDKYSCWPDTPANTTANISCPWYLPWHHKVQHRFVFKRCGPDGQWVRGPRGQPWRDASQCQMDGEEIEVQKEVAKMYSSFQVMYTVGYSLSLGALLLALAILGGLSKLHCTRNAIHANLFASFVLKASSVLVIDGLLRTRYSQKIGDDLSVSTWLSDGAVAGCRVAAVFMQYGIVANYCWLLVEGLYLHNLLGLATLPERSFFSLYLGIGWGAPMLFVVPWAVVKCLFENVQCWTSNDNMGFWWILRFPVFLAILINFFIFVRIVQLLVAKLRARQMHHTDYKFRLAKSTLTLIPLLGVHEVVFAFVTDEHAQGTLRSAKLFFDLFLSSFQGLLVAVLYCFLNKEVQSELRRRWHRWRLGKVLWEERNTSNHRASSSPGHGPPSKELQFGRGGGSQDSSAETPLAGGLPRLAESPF
Numbered stars: 1 amine (or outer) side, 2 acyl side, 3 side chain; on linkers, the order of the positions; unused ones are H or OH. Square brackets hold non-standard residues; d marks the D form. Side chains are listed from the residue outwards. Ends that are not written are not given here. γGlu = O=C(O)[C@H](CCC(=O)[*:2])N[*:1]; X70 = not defined here; x53 = not defined here; x76 = not defined here; Aib = CC(C)(N)C(=O)O
Recorded endpoint: EC50 hGlucagon-R (cAMP) (pM)

binder="H[Aib]QGTFTSDLSKQK([γGlu-x76])ESRAAQLFIEWLKAGGPSSGAPPPS-NH2 (reading uncertain) [SEQ ID NO: 203]" recorded_endpoint="EC50 hGlucagon-R (cAMP)" unit_annotation=pM experimental_result=13.1
binder="H[Aib]QGTFTSDLSKQK([γGlu-X70])DEQRAKEFIEWLKAGGPSSGAPPPS-NH2 (reading uncertain) [SEQ ID NO: 152]" recorded_endpoint="EC50 hGlucagon-R (cAMP)" unit_annotation=pM experimental_result=2.3
binder="HXQGTFTSDLSKQKESRRAXDFIEWLKAGGPSSGAPPPS (dSer at 2; K(x53) at 14; Aib at 20; C-terminal NH2) [SEQ ID NO: 76]" recorded_endpoint="EC50 hGlucagon-R (cAMP)" unit_annotation=pM experimental_result=162
binder="HXQGTFTSDLSKQKDKRRAQDFIEWLKAXGPSSGAPPPS (Aib at 2; K(γE-x70) at 14; dAla at 29; C-terminal NH2) [SEQ ID NO: 209]" recorded_endpoint="EC50 hGlucagon-R (cAMP)" unit_annotation=pM experimental_result=1.9
binder="H[Aib]QGTFTSDLSKQK([γGlu-γGlu-x53])DEEAARLFIEWLKAGGPSSGAPPPS-NH2 (reading uncertain) [SEQ ID NO: 226]" recorded_endpoint="EC50 hGlucagon-R (cAMP)" unit_annotation=pM experimental_result=19.1
